Origin of measurements: patent US20120035206A1

Target or system C. glabrata; recorded quantity log10 of MIC.
Log10 applied to MIC; unit prior to transform: µg/mL.

For `O=C1/C(=C/Br)CSc2ccc(F)cc21` the compound record lists log10 of MIC as 0.90

For `Cc1ccc2c(c1)C(=O)/C(=C/Br)CS2` the compound record lists log10 of MIC as 1.81

For `O=C1/C(=C\Cl)CSc2ccc(F)cc21` the compound record lists log10 of MIC as 0.90

For Cc1ccc2c(c1)C(Cl)/C(=C/Cl)CS2 (stereo not drawn) the compound record lists log10 of MIC as 1.51

For `O=C1/C(=C\O)CSc2ccc(F)cc21` the compound record lists log10 of MIC as 1.81

---

tested on: C. glabrata
We label by threshold. Values of MIC strictly beneath 30 µg/mL are 1. Values of 30 µg/mL and up are 0.

Study these solved cases before continuing.
O=C1/C(=C\Cl)CSc2ncccc21 [Compound 27]	1
Cc1cc2c(cc1F)CS/C(=C\Br)C2=O [Compound 16]	1

State whether 30 µg/mL exceeds MIC recorded for O=C1/C(=C/Cl)CSc2ncccc21 [Compound 18] .
1

State whether 30 µg/mL exceeds MIC recorded for Cc1ccc2c(c1)C(=O)CSC2 [Compound 13] .
0

State whether 30 µg/mL exceeds MIC recorded for Cc1ccc(S/C=C2/CSc3ccc(F)cc3C2=O)cc1F [Compound 23] .
0

State whether 30 µg/mL exceeds MIC recorded for O=C1/C(=C/Cl)CSc2ccc(Cl)cc21 [Compound 4] .
1

State whether 30 µg/mL exceeds MIC recorded for O=C1/C(=C/Cl)CSc2sccc21 [Compound 19] .
0

State whether 30 µg/mL exceeds MIC recorded for O=C1/C(=C/Cl)SCc2ccccc21 [Compound 14] .
1

State whether 30 µg/mL exceeds MIC recorded for Cc1ccc2c(c1)C(O)/C(=C/Cl)CS2 (stereo not shown) [Compound 17] .
0

---

Target or system C. glabrata; recorded quantity MIC.
Report only the number, with the unit µg/mL understood.

Recorded results for 3 compounds are shown here.
O=C1/C(=C/Cl)CSc2ccc(F)cc21 [Compound 7]	16
OC1/C(=C/Cl)SCc2ccccc21 (stereo not shown) [Compound 20]	8
O=C1/C(=C\Cl)CSc2ccc(Cl)cc21 [Compound 21]	8

Here's the next entry for you.
MIC for C. glabrata with input O=C1/C(=C/Br)CSc2ccc(Cl)cc21 [Compound 10] equals 64
